Listed here are compounds together with their documented solubility.
assay-protocol: physchem

{"columns": ["compound", "solubility"],
 "data": [
  ["CN1C(C(=O)Nc2ccccn2)=C(O)c2ccccc2S1(=O)=O [piroxicam]", "< 100 µg/mL"],
  ["O=c1[nH]c2ccccc2n1CCCN1CCC(n2c(=O)[nH]c3cc(Cl)ccc32)CC1 [domperidone]", "< 100 µg/mL"]
]}

From: patent US20060073188A1
